- assay.overview: n-Octanol-Tris/phosphoric acid buffer buffer distribution coefficient, log D of the compound at pH 7.4 shaken for 30 mins and measured after 24 hrs by UV-HPLC method
- Format: physicochemical
readout.label: logD
Please give the numeric answer without any surrounding text.

Reported logD, molecule CNC(=O)C(=O)NCCCC/C=C\CCCCCCCOCC(=O)O : ____
-0.03

Repeat for the following molecule: CNC(=O)C(=O)NCCCC/C=C\CCCCCCCCCC(=O)O
2.01

Repeat for the following molecule: CNC(=O)C(=O)NCCCC/C=C\CCCCCCCCCc1nnn[nH]1
2.35

* * *

Give Activity for every item shown.
- assay.overview: Negative chronotropic activity in Wistar rat neonatal cardiomyocytes assessed as change in basal beating rate after 7 mins by inverted microscopic method; further: test concentration or dose not given here
- Type: functional
Field: value (include unit after the number)

Reported Activity, molecule CNC(=O)C(=O)NCCCC/C=C\CCCCCCCCCP(=O)([O-])[O-].[Na+].[Na+] : ____
-21.3 bpm

Repeat for the following molecule: CNC(=O)C(=O)NCCCC/C=C\CCCCCCCCCc1nnn[nH]1
-30.9 bpm

Repeat for the following molecule: CNC(=O)C(=O)NCCCC/C=C\CCCCCCCCCC(=O)N(C)CC(=O)[O-].[Na+]
-15.6 bpm

Repeat for the following molecule: CNC(=O)C(=O)NCCCC/C=C\CCCCCCCCCS(=O)(=O)[O-].[Na+]
-20.7 bpm

Repeat for the following molecule: CNC(=O)C(=O)NCCCC/C=C\CCCCCCCCCc1noc(=O)[nH]1
-11 bpm

Repeat for the following molecule: CCNC(=O)NCCCC/C=C\CCCCCCCCCC(=O)OCCOCCOCCO
-19.8 bpm

Repeat for the following molecule: CNC(=O)C(=O)NCCCCc1ccccc1CCCCCCCCCP(=O)([O-])[O-].[Na+].[Na+]
-21.8 bpm

Repeat for the following molecule: CNC(=O)C(=O)NCCCC/C=C\CCCCCCCCCC(=O)N[C@@H](C)C(=O)[O-].[Na+]
-1.1 bpm

Repeat for the following molecule: CNC(=O)C(=O)NCCCC/C=C\CCCCCCCCCOc1cccc2sc(NC(C)=O)nc12
-21.1 bpm

Repeat for the following molecule: CNC(=O)C(=O)NCCCC/C=C\CCCCCCCCCC1=NO[S+]([O-])N1 (stereo not given)
-24.3 bpm

Repeat for the following molecule: CNC(=O)C(=O)NCCCC/C=C\CCCCCCCOCC(=O)OCCOCCOCCO
-25.2 bpm

Repeat for the following molecule: CNC(=O)C(=O)NCCCC/C=C\CCCCCCCCCP(=O)(OC)OCOC(=O)C(C)(C)C (stereo not given)
-16.2 bpm

Repeat for the following molecule: CNC(=O)C(=O)NCCCC/C=C\CCCCCCCCCP(=O)(OCOC(=O)C(C)(C)C)OCOC(=O)C(C)(C)C
-23.5 bpm

Repeat for the following molecule: CNC(=O)C(=O)NCCCC/C=C\CCCCCCCCCSc1ccccc1O
-7.5 bpm

Repeat for the following molecule: CNC(=O)C(=O)NCCCc1ccccc1CCCCCCP(=O)([O-])[O-].[Na+].[Na+]
-24.5 bpm

Repeat for the following molecule: CNC(=O)C(=O)NCCCC/C=C\CCCCCCCOCC(=O)O
-33.6 bpm

Repeat for the following molecule: CNC(=O)C(=O)NCCCC/C=C\CCCCCCCCCP(=O)(OC)OC
-18 bpm

Repeat for the following molecule: CNC(=O)C(=O)NCCCC/C=C\CCCCCCCCCC(=O)NS(=O)(=O)c1ccccc1
-23.1 bpm

Repeat for the following molecule: CCNC(=O)NCCCC/C=C\CCCCCCCOCC(=O)O
-38 bpm

Repeat for the following molecule: CCNC(=O)NCCCC/C=C\CCCCCCCCCC(=O)NCC(=O)[O-].[Na+]
-21.1 bpm
